Test Method Notes: qHTS RealTime-Glo MT Cell Viability Assay in HepG2 cells - 40 hour (AID 1224870); also: nearly all actives have a fitted effect of over 50% in size
Condition Info: RealTime-Glo luminescence; series mostly up to 76.8 µM
Results filed as inconclusive are left out. Active and inactive are the calls of the source. Calls follow the shape of the dose curve; as a rule, active = well fitted cell-killing curve with a large enough effect in the repeat runs; inconclusive = weak or mixed curves, or effect the other way; inactive = flat fitted curve, though single readings scatter.
Outcomes: active, inactive

- Compound: "N#[N+]c1ccc2c(S(=O)(=O)[O-])cccc2c1O"
  Group: "inactive"
- Compound: "CCCCN(CCN(CCCC)C(=O)N1CCOCC1)C(=O)N1CCOCC1"
  Group: "inactive"
- Compound: "O[C@@H]1CO[C@H]2[C@@H]1OC[C@@H]2O"
  Group: "inactive"
- Compound: "C=C/C(C)=C/C/C=C(\\C)CCC=C(C)C"
  Group: "inactive"
- Compound: "C[C@H]1C[C@H](O)c2ccsc2S1(=O)=O"
  Group: "inactive"
- Compound: "Oc1ccc(Cl)c2cccnc12"
  Group: "inactive"
- Compound: "CCCCCCCCC(CCCCCC)C(=O)O (centres undefined)"
  Group: "inactive"
- Compound: "CCCCC(CC)COP(=O)(O)O (centres undefined)"
  Group: "inactive"
- Compound: "O=C(Cn1ccnc1[N+](=O)[O-])NCCO"
  Group: "inactive"
- Compound: "CC/C=C1/OC(=O)c2ccccc21"
  Group: "inactive"
- Compound: "CCCCC(CC)CN (centres undefined)"
  Group: "inactive"
- Compound: "C[C@@H]1CN(CCCn2c3ccccc3c3ccccc32)C[C@H](C)N1"
  Group: "active"
- Compound: "CC(CO)CO"
  Group: "inactive"
- Compound: "Cc1ccco1"
  Group: "inactive"

====

Test Method Notes: qHTS RealTime-Glo MT Cell Viability Assay in HEK293 cells - 32 hour (AID 1224868); also: nearly all actives have a fitted effect of over 50% in size; also: potency is read from the fitted curve at half-maximal effect
Condition Info: RealTime-Glo luminescence; series mostly up to 76.8 µM
Records with an inconclusive call do not appear. Calls of active or inactive are those of the source. The call rests on the fitted dose curve; in most records, active means well fitted cell-killing curve with a large enough effect in the repeat runs; inconclusive means weak or mixed curves, or effect the other way; inactive means flat fitted curve, though single readings scatter.
Recorded Metric: Potency

- Compound: "CCCCCC[C@@H](O)C/C=C\\CCCCCCCC(=O)OCC(O)CO (stereo partly specified)"
  Meas Value: "inactive"
- Compound: "CCOc1cccc(-n2cc(C(=O)N3CCN(c4cc(C(=O)O)c5ccccc5c4)CC3)nc2-c2ccc(C)cc2)c1"
  Meas Value: "inactive"
- Compound: "CC(CC1c2ccccc2CCc2ccccc21)CN(C)C (stereo unspecified)"
  Meas Value: "inactive"
- Compound: "COc1cc(C(=O)NC2CCN(C)CC2)ccc1Nc1ncc2c(n1)N(C1CCCC1)CC(F)(F)C(=O)N2C"
  Meas Value: "0.0142 µM (active)"
- Compound: "c1ccc(C[n+]2cccc3ccccc32)cc1"
  Meas Value: "inactive"
- Compound: "O=C1Cc2cc(Cl)ccc2N1"
  Meas Value: "inactive"
- Compound: "Nc1nnc(-c2ccc([N+](=O)[O-])o2)o1"
  Meas Value: "inactive"
- Compound: "O=C1c2ccccc2C(=O)C1c1nc2ccccc2c(Br)c1O"
  Meas Value: "inactive"
- Compound: "O=[N+]([O-])c1ccc(O/N=C/c2cc(Br)c(O)c(Br)c2)c([N+](=O)[O-])c1"
  Meas Value: "43.4 µM (active)"
- Compound: "O=C1NC(=O)c2cc([N+](=O)[O-])ccc21"
  Meas Value: "inactive"
- Compound: "CCCCCCCCC(CCCCCC)C(=O)O (stereo unspecified)"
  Meas Value: "inactive"

FYI, the data here is from PubChem BioAssay (Tox21).
